# SYSTEM_NAME: T1, Human Abeta1-42 biotinylated at the peptide C-terminus (human, biotin at the peptide C-terminus)
# T1 construct: also called biotinylated Abeta1-42
# PROCEDURE_SUMMARY: target capture ELISA
QUANTITY_NAME: binding result

ACI-8037-103H5-Ab2 (antibody, mouse IgG2a, kappa, V domains shown, Murine IgG2a/kappa) VH: QVTLKESGPGILKPSQTLSLTCSFSGFSLSTSGMGVGWIRQPSGKGLEWLAHIWWDDDKYYNPSLKSRLTISKDSSRNQVFLKITSVDTADTATYYCVRRGTRLEDYFDFWGQGTTLTVSS VL: DVLMTQTPLSLPVSLGDQASISCRSSRSIVHSNGNTYLEWYLQKPGQSPKLLIFKVSNRFSGVPDRFSGSGSGTDFTLKISRVEAEDQGVYYCFQGSHVPLTFGAGTKLELKR: binds
ACI-8041-4G6D2-Ab1 (antibody, mouse IgG2a, kappa, V domains shown, Murine IgG2a/kappa) VH: QVQLQQSGAELVRPGASVKLSCKASGYTFTSYYMYWVKQRPGQGLEWIGEIIPSNGDTNFNEKFRSKATLTVDKSSSTAYMQLSSLTSEDSAVYYCTATGTVWGQGTLVTVSA VL: DVLMTQTPLSLPVSLGDQASISCRSSQSIVHSNGNTYLEWYLQKPGQSPKLLIYKVSNRFSGVPDRFSGSGSGTDFTLKISRVEAEDLGVYYCFQGSHVPWTFGGGTKLEIKR: binds
ACI-8041-6C3C4-Ab1 (antibody, mouse IgG2a, kappa, V domains shown, Murine IgG2a/kappa; also called ACD-8041-63C4-Ab1) VH: EVQLQQSGPELVKPGASVNISCKTSGYTFTEYTMHWMKQSHGKSLEWIGGINPNNGVTGYNQKFKGRATLTVDKSSSTAYMELRSLTSEDSAVYYCARSDYDDLYYAMDYWGQGTSVTVSS VL: EIVLTQSPTTMAASPGEKITITCSASSSISSNYLHWYQQKPGFSPKLLIYRTSNLASGVPARFSGSGSGTSYSLTIGTMEAEDVATYYCQQGSSIPFTFGSGTKLEIKR: binds
